Cited source for all entries: paper PMC5615103

# protocol text: WST-1 dose-response cytotoxicity in THP-1 monocytes
# Format: cell-based, human
# condition notes: human, THP-1 monocytes
readout name: viability at 24 h, 25 μM

N[C@@H]1[C@H]2CN(c3nc4c(cc3F)c(=O)c(C(=O)O)cn4-c3ccc(F)cc3F)C[C@@H]12 | ~76%

* * *

# protocol text: average plasma maximum concentration
# Format: in vivo, humans
# condition notes: human
# binarize Cmax: threshold 600 µM inclusive, high side MET, low side NOT MET

OC(Cn1cncn1)(Cn1cncn1)c1ccc(F)cc1F | MET
O=C(O)Cc1ccccc1Nc1c(Cl)cccc1Cl | MET
C[C@H]1COc2c(N3CCN(C)CC3)c(F)cc3c(=O)c(C(=O)O)cn1c23 | MET
CN(CCOc1ccc(CC2SC(=O)NC2=O)cc1)c1ccccn1 (centres unmarked) | NOT MET
N[C@@H]1[C@H]2CN(c3nc4c(cc3F)c(=O)c(C(=O)O)cn4-c3ccc(F)cc3F)C[C@@H]12 | NOT MET
CC(=O)N1CCN(c2ccc(OCC3COC(Cn4ccnc4)(c4ccc(Cl)cc4Cl)O3)cc2)CC1 (centres unmarked) | MET
CC(=O)Oc1ccccc1C(=O)O | NOT MET
Cc1c(C)c2c(c(C)c1O)CCC(C)(COc1ccc(CC3SC(=O)NC3=O)cc1)O2 (centres unmarked) | MET
